The values you see were collected from BindingDB's records for doi:10.1007/s00210-003-0860-y.

Test system Beta-2 adrenergic receptor (Homo sapiens, UniProt P07550), pKi listed for each of the compounds.
pKi: −log10 of the molar value.
value.kind: pKi

compound="CC(Cc1ccc(OCC(=O)O)cc1)NCC(O)c1cccc(Cl)c1 (configuration not stated)" result_number=5.04
compound=CCc1ccccc1OC[C@@H](O)CN[C@H]1CCCc2ccccc21 result_number=7.21

###

biological target: Beta-3 adrenergic receptor (Homo sapiens)
Sequence (P13945 whole entry): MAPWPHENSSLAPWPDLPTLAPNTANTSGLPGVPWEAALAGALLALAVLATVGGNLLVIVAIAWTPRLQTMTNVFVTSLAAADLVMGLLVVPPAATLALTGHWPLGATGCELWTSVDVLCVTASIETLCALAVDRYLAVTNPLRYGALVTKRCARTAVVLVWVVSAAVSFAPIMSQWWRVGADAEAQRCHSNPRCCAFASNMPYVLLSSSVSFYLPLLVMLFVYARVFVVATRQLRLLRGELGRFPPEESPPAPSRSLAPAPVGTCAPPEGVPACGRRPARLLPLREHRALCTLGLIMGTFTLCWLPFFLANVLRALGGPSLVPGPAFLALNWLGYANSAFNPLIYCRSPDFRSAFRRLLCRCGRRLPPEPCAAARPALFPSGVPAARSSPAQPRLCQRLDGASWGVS
pKi: −log10 of the molar value.
value.kind: pKi

compound=CCc1ccccc1OC[C@@H](O)CN[C@H]1CCCc2ccccc21 limit_qualifier== result_number=6.91
compound="CC(C)(C)NCC(O)COc1cccc2[nH]c(=O)[nH]c12 (stereo not given)" limit_qualifier== result_number=7.11
compound="CNCC(O)c1ccc(O)c(O)c1 (stereo not given) [EPINEPHRINE]" limit_qualifier=< result_number=5.00
compound="CC(C)(C)NCC(O)c1cc(O)cc(O)c1 (racemic) [Terbutaline,(+/-)]" limit_qualifier=< result_number=5.00
compound="OCc1cc(C(O)CNCCCCCCOCCCCc2ccccc2)ccc1O (stereo not given) [salmeterol xinafoate]" limit_qualifier== result_number=5.14
